Provenance of the data: paper PMC9388626

Target: T1, Recombinant STUB1 protein, spanning aa25-aa153 (UniProt Q9UNE7 25-153)
T1 construct: STUB1 (E3 ligase, also STUB1/CHIP), residues 25-153; also called STUB1 (aa25–aa153); CHIP; source: recombinant, produced by Nanyang Technological University protein production platform; purity and identity confirmed by mass spectrometry and SDS-PAGE
T1 sequence (looked up): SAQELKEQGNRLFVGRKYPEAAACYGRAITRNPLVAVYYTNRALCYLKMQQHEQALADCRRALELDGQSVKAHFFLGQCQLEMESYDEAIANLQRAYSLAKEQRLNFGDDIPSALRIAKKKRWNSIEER
Assay: ITC; peptide (200 µM) injected into STUB1 aa25-aa153 (20 µM); 25 °C; PBS pH 7.4, 0.5 mM TCEP, 2% DMSO; one-site binding model
Details: both partners purified
measured parameter: Kd (nM)
Kindly answer with a numeric value in nM, unit omitted.

I would be grateful if you could share the reported Kd for Ac-SIWWPD-OH (source: synthetic peptide, custom made by Chinese Peptide Company (CPC)) [synthetic inhibitory peptide SIWWPD] . 14
